Catalogue of pIC50 values
tested on: 186277-243-T-J2-PDC complex spheroid growth; assay: Anticancer human tumor 186277-243-T-J2-PDC patient-derived colon adenocarcinoma cell line growth inhibition [AhR]; conditions: curve of first compound; second compound 10 µM;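 also: spheroids exposed to compounds for seven days before the viability read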
pIC50: −log10 of the molar value.

Consider the reported pIC50 for these compounds:
>  <Compound>
CC1COCCN1c1cc(-c2ccnn2C)c2ccnc(-c3ccn[nH]3)c2n1 (stereo not drawn) + Cc1cncc(-c2nc(NCCc3c[nH]c4ccccc34)c3ncn(C(C)C)c3n2)c1

>  <pIC50>
> 8.50

$$$$
>  <Compound>
COc1cc(Nc2ncc3c(n2)-c2ccc(Cl)cc2C(c2c(F)cccc2OC)=NC3)ccc1C(=O)O + Cc1cncc(-c2nc(NCCc3c[nH]c4ccccc34)c3ncn(C(C)C)c3n2)c1

>  <pIC50>
> 7.50

$$$$
>  <Compound>
Nc1ccccc1NC(=O)c1ccc(CNC(=O)OCc2cccnc2)cc1 + Cc1cncc(-c2nc(NCCc3c[nH]c4ccccc34)c3ncn(C(C)C)c3n2)c1

>  <pIC50>
> 7.50

$$$$
>  <Compound>
O=C(c1cc(Cc2n[nH]c(=O)c3ccccc23)ccc1F)N1CCN(C(=O)C2CC2)CC1 + Cc1ccccc1N=Nc1ccc(NC(=O)c2ccnn2C)c(C)c1

>  <pIC50>
< 5.00

$$$$

**Query** Give the reported pIC50 for Nc1ccn(C2OC(CO)C(O)C2(F)F)c(=O)n1 (stereo not drawn) + CC(CO)NC(=O)c1cc(-c2ccc(Cl)cc2)nn(-c2cnn(C)c2)c1=O (system: 186277-243-T-J2-PDC complex spheroid growth).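 Also: spheroids exposed to compounds for seven days before the viability read.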
**Result** > 7.50

**Query** Same read-out for Nc1ccn(C2OC(CO)C(O)C2(F)F)c(=O)n1 (stereo not drawn) + Cc1cncc(-c2nc(NCCc3c[nH]c4ccccc34)c3ncn(C(C)C)c3n2)c1 ?
**Result** > 7.50

**Query** Same read-out for CCN(c1cc(-c2ccc(CN3CCOCC3)cc2)cc(C(=O)NCc2c(C)cc(C)[nH]c2=O)c1C)C1CCOCC1 + CC(CO)NC(=O)c1cc(-c2ccc(Cl)cc2)nn(-c2cnn(C)c2)c1=O ?
**Result** < 5.52

**Query** Same read-out for Nc1ccn(C2OC(CO)C(O)C2(F)F)c(=O)n1 (stereo not drawn) + Cc1ccccc1N=Nc1ccc(NC(=O)c2ccnn2C)c(C)c1 ?
**Result** > 7.50
